- target_under_test: T1, Fusion protein of LAG-3 extracellular region and mIgG2a Fc (human)
- T1 construct: Limits of the signal peptide are marked only by lost underlining; also called LAG-3-mFc; LAG-3-mFc fusion protein
- T1 chain: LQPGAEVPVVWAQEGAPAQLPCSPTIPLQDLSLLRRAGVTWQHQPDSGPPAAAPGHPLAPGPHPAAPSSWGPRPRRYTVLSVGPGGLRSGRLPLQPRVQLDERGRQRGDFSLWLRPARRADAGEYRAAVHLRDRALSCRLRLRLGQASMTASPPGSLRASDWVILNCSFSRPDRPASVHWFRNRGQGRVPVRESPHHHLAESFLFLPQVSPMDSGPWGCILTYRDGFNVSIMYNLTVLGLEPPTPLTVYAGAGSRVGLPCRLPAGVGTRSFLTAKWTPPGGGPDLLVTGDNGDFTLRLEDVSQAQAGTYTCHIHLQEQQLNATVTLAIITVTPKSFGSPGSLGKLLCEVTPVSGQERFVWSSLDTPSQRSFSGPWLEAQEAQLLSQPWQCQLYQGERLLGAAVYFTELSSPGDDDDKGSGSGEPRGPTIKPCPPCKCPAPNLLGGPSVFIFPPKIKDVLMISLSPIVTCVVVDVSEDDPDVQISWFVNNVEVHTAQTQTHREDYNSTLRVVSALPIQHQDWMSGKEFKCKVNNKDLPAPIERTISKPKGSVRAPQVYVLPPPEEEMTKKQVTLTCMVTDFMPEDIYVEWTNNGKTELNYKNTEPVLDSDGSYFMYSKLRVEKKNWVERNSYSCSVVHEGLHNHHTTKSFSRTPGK
- measurement_protocol: ELISA, LAG-3-mFc captured by anti-mouse Fc on plate (which fusion: inferred)
measured_parameter: EC50 (pM)
Give the value in pM but do not write pM after it.

Here's what some known entries look like.
[
  {
    "binder": "Hu303-004 (antibody, human IgG4 S228P, kappa, V domains shown, Humanized mAb303) VH: QVQLVQSGAEVKKPGASVKVSCKASGYTFTDYYMNWVRQAPGQRLEWMGVINPYNGDTAYNQKFKGRVTITRDTSASTAYMELSSLRSEDTAVYYCARDDGYYDYYFDVWGQGTTVTVSS VL: DIQMTQSPSSLSASVGDRVTITCRASQDIGSRLNWYQQKPGKAPKLLIYATSTLDSGVPSRFSGSGSGTDFTLTISSLQPEDFATYYCLQLASSPPTFGGGTKVEIKR",
    "EC50, pM": 278
  },
  {
    "binder": "Hu303-005 (antibody, human IgG4 S228P, kappa, V domains shown, also called LAG-3 antibody Hu303-005; LAG3 antibody Hu303-005) VH: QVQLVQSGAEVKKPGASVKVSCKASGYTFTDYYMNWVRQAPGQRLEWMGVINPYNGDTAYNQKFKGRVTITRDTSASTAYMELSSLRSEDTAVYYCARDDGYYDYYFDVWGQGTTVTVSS VL: DIQMTQSPSSLSASVGDRVTITCRASQDIGSRLNWYQQKPGKAPKRLIYATSTLDSGVPSRFSGSRSGTDFTLTISSLQPEDFATYYCLQLASSPPTFGGGTKVEIKR",
    "EC50, pM": 309
  }
]

From here, focus on the item given below.
Lookup: Data request, read-out EC50, for Hu303-019 (antibody, human IgG4 S228P, kappa, V domains shown, Humanized mAb303) VH: QVQLVQSGAEVKKPGASVKVSCKASGYTLTDYYMNWVRQAPGQRLEWIGVINPYNGDTAYNQKFKGRATLTVDKSASTAYMELSSLRSEDTAVYYCTRDDGYYDYYFDVWGQGTTVTVSS VL: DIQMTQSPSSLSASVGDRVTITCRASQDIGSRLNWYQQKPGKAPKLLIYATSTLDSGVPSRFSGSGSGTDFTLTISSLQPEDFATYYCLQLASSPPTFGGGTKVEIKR
Found: 277
